# TESTED SYSTEM: T1, HER2-ECD-Fc (human, UniProt P04626 23-652)
# T1 construct: extracellular domain; Produced in FreeStyle 293F cells; also called HER2-ECD Fc fusion protein
# METHOD NOTES: ELISA on HER2-ECD-Fc; antibody at 5 µg/mL
MEASURED ATTRIBUTE: absorbance
// print number alone

Would you mind telling me what absorbance value was observed for 24D3 (antibody, V domains shown) VH: EVKLVESGGGLVKPGGSLKLSCAASGFTFSSCAMSWVRQTPEKRLEWVATISGGGSYTYYPDSVKGRFTISRDNAKNTLYLQMSSLRSEDTAMYYCARHGGYESWFPYWGQGTLVTVSA VL: DIVMTQSPLSLPVSLGDQASISCRSSQSLVHSNGNTYLHWYLQKPGQSPKLLIYKVSNRFSGVPDRFSGSGSGTDFTLKISRVEAEDLGVYFCSQSTHVPPWTFGGGTKLEIK ?
2.92
